This collection of values is drawn from paper PMC10999543.

z-scoreHeLa rep 3 reference
test system: HeLa cells; assay: Compound screen by flow cytometry: HeLa cell count as surrogate readout of cell viability (z-scoreHeLa); assay type: cell-based, human; settings: compound screen, HeLa cell count, replicate 3; further: test concentration or dose not given here
The answer should be a number; do not append a unit.

Worked cases, z-scoreHeLa rep 3 given:
Compound	z-scoreHeLa rep 3
Nc1nc(-c2ccc3c(c2)C(=Cc2cc(Br)c(O)c(Br)c2)C(=O)N3)cs1 [GW407323A]	1.18
CS(=O)(=O)Cc1ccc(Nc2nccc(-c3c(-c4cccc(NC(=O)C5CCCCC5)c4)nn4ncccc34)n2)cc1 [GSK350559A]	-0.19
Cc1cc(N2Cc3ccccc3C2)nc(Nc2ccc(S(=O)(=O)N3CCOCC3)cc2)n1 [GSK1669917A]	0.47
CC(C)c1nc(-c2cccc(NS(=O)(=O)c3c(F)cccc3F)c2)c(-c2ccnc(Nc3ccc(N4CCOCC4)nc3)n2)s1 [GSK1723980B]	-1.92
COc1cc(Nc2ccnc3ccc(C(F)(F)F)cc23)cc(OC)c1OC [GW577382X]	-1.66
O=C(Nc1n[nH]c2cc(-c3cccc(F)c3F)ccc12)C1CC1 [SB-733894]	-0.22
Fc1cc(Cl)ccc1Nc1ccnc2cc(-c3ccc(CN4CCCCC4)o3)ccc12 [GW560116X]	-2.51

In: Reported z-scoreHeLa rep 3 for HeLa cells, given Cn1cc(-c2ccc3c(c2)CCN3C(=O)Cc2cc(F)cc(F)c2F)c2c(N)ncnc21 [GSK2634140A] ?
Out: -1.61
